ASSAY SYSTEM: human PDE2A1 (Homo sapiens (Human))
TEST DETAILS: IMAP FP PDE selectivity panel, human PDE2A1
Format: biochemical
CONDITION: Human PDE2, Lab B; read-out: Human PDE2 Ki (nM) - Lab B
MEASURED ATTRIBUTE: Ki (nM)

{"columns": ["MOLECULE", "ASSAY SYSTEM", "MEASURED ATTRIBUTE", "ENDPOINT VALUE"],
 "data": [
  ["CC[C@@H](NC(=O)c1cc(=O)[nH]c(Cc2ccc(OC)c(F)c2)n1)c1ccc(OC(F)(F)F)cc1 [Example 529]", "human PDE2A1 (Homo sapiens (Human))", "Ki", 2],
  ["O=C(N[C@@H](c1ccc(C2CC2)c(F)c1)C1CC1)c1cc(=O)[nH]c(-c2ccccc2)n1 [Example 546]", "human PDE2A1 (Homo sapiens (Human))", "Ki", 3.8],
  ["CC(C)(C)[C@@H](NC(=O)c1cc(=O)[nH]c(-c2ncccn2)n1)c1ccc(S(F)(F)(F)(F)F)cc1 [Example 566]", "human PDE2A1 (Homo sapiens (Human))", "Ki", 4.3],
  ["COc1ccc(C(C)(C)c2nc(C(=O)N[C@@H](c3ccc(OC(F)(F)F)c(F)c3)C(C)C)cc(=O)[nH]2)cc1 [Example 492]", "human PDE2A1 (Homo sapiens (Human))", "Ki", 29],
  ["Cc1nc(C(=O)N[C@@H](c2ccc(SC(F)(F)F)cc2)C(C)(C)C)cc(=O)[nH]1 [Example 58]", "human PDE2A1 (Homo sapiens (Human))", "Ki", 1.7],
  ["O=C(N[C@@H](c1ccc(C2CC2)cc1)C1CC1)c1cc(=O)[nH]c(-c2ccccc2)n1 [Example 544]", "human PDE2A1 (Homo sapiens (Human))", "Ki", 2.4],
  ["Cc1nc(C(=O)N[C@](C)(CO)c2ccc(C(F)(F)F)cc2Cl)cc(=O)[nH]1 [Example 640]", "human PDE2A1 (Homo sapiens (Human))", "Ki", 4.4]
]}

* * *

ASSAY SYSTEM: Rhesus PDE2A3 (Macaca mulatta)
Sequence (B3VTJ2 1-941): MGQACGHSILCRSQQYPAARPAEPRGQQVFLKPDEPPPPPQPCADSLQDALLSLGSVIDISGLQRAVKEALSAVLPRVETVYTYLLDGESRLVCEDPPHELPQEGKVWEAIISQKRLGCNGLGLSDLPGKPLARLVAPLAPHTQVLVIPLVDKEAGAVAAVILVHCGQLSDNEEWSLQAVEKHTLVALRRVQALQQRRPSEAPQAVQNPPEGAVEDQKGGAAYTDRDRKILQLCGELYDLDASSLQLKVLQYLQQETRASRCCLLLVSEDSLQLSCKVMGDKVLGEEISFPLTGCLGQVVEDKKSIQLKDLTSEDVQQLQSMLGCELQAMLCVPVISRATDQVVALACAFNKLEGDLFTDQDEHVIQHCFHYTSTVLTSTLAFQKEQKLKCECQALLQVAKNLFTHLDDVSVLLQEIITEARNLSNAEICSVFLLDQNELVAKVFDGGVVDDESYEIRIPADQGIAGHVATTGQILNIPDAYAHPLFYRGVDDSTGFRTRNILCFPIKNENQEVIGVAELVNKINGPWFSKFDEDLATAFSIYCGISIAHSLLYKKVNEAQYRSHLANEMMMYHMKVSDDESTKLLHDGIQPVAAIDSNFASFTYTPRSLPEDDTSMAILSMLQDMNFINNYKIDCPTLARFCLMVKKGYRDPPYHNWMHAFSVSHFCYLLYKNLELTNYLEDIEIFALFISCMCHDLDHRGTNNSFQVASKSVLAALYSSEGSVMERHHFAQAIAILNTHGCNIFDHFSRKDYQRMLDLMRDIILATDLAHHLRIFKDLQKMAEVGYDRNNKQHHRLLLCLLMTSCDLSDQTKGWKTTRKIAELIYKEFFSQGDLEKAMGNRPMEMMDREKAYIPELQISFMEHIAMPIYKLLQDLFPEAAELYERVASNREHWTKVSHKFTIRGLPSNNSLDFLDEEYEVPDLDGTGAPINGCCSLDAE
TEST DETAILS: PDE2 fluorescence polarization (IMAP FP) inhibition assay, rhesus enzyme
Type: biochemical, rhesus macaque
CONDITION: Rhesus PDE2, Lab A; read-out: Rhesus PDE2 Ki (nM) - Lab A

{"columns": ["COMPOUND", "Ki (nM)"],
 "data": [
  ["Cc1nc(C(=O)N[C@H](C)c2cccc(C(F)(F)F)c2)cc(=O)[nH]1", 2960],
  ["O=C(NC(c1ccccc1)c1ccc(C(F)(F)F)cc1)c1cc(=O)[nH]c(C2CC2)n1 (stereo not shown)", 915],
  ["C[C@@H](NC(=O)c1cc(=O)[nH]c(-c2ccccc2)n1)c1ccc(N(C)C)cc1", 24],
  ["C[C@@H](NC(=O)c1cc(=O)[nH]c(C2CC2)n1)c1ccc(OC(F)(F)F)c(F)c1", 6.3],
  ["C[C@@H](NC(=O)c1cc(=O)[nH]c(-c2ccccc2)n1)c1ccc(C(F)(F)F)c(Cl)c1", 6.4],
  ["Cc1nc(C(=O)NC(C)(C)c2ccc(OC(F)(F)F)cc2)cc(=O)[nH]1", 304],
  ["COc1cc(C(F)(F)F)ccc1[C@@H](C)NC(=O)c1cc(=O)[nH]c(C2CC2)n1", 43],
  ["C[C@@H](NC(=O)c1cc(=O)[nH]c(-c2ccccc2)n1)c1ccc(OC(F)(F)F)cc1F", 16],
  ["COc1ccc(Cc2nc(C(=O)NC3(C)CC3)cc(=O)[nH]2)cc1OC", 1150],
  ["CC(C)(NC(=O)c1cc(=O)[nH]c(-c2ccccc2)n1)c1ccc(C(F)(F)F)c(F)c1", 14],
  ["COCc1nc(C(=O)N[C@H](C)c2ccc(C(F)(F)F)c(F)c2)cc(=O)[nH]1", 176],
  ["CC(C)[C@@H](NC(=O)c1cc(=O)[nH]c(-c2ncccn2)n1)c1ccc(SC(F)(F)F)c(F)c1", 1.4],
  ["CC(C)[C@@H](NC(=O)c1cc(=O)[nH]c(-c2ncccn2)n1)c1ccc(OC(F)(F)F)cc1", 5.1],
  ["O=C(NCc1ccc(C(F)(F)F)cc1Cl)c1cc(=O)[nH]c(-c2ccccc2)n1", 485],
  ["Cc1nc(C(=O)N[C@H](C)c2ccc(-c3ccc(C(F)(F)F)cc3)cc2)cc(=O)[nH]1", 73]
]}

* * *

ASSAY SYSTEM: human PDE2A1 (Homo sapiens (Human), UniProt O00408)
Sequence (O00408 other isoform, or with tags, fused parts or gaps): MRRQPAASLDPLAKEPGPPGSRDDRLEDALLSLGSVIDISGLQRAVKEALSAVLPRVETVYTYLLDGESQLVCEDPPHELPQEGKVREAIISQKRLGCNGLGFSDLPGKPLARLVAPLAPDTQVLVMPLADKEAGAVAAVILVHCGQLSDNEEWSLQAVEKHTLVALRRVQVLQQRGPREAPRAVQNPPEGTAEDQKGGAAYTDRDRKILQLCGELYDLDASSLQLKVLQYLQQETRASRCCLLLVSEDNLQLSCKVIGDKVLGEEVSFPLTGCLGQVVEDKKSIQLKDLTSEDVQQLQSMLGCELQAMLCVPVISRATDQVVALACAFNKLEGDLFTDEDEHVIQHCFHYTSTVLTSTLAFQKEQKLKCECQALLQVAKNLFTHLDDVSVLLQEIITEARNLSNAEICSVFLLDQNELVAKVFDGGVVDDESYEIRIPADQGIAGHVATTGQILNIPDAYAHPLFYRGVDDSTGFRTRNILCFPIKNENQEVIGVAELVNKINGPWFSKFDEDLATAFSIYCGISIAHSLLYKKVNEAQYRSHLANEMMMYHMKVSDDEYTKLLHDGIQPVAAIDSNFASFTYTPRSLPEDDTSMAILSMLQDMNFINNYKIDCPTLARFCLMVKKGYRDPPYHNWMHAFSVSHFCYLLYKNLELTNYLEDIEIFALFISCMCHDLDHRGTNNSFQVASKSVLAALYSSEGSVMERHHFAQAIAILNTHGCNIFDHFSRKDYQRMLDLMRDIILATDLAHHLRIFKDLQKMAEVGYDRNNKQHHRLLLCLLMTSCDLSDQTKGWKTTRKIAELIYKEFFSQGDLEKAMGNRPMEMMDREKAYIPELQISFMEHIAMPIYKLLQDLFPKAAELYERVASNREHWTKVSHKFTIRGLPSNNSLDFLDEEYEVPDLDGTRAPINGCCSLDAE
TEST DETAILS: IMAP FP PDE selectivity panel, human PDE2A1
Format: biochemical
CONDITION: Human PDE2, Lab B; read-out: Human PDE2 Ki (nM) - Lab B
Listed below: Ki values for each entry.

{"columns": ["MOLECULE", "VALUE RELATION SIGN", "Ki (nM)"],
 "data": [
  ["CC(C)[C@@H](NC(=O)c1cc(=O)[nH]c(-c2ncccn2)n1)c1ccc(C(F)(F)F)cc1", "=", 5.3],
  ["CC1(C(NC(=O)c2cc(=O)[nH]c(-c3ccccc3)n2)c2ccc(SC(F)(F)F)c(F)c2)CC1 (single isomer, unassigned)", "=", 7.7],
  ["CC(NC(=O)c1cc(=O)[nH]c(-c2ccccc2)n1)c1ccc(C2(C(F)(F)F)CC2)cc1 (single isomer, unassigned) [Example 690]", ">", 2960],
  ["CC(C)(C)[C@@H](NC(=O)c1cc(=O)[nH]c(-c2ccccc2)n1)c1ccc(SC(F)(F)F)cc1", "=", 1.3]
]}

* * *

ASSAY SYSTEM: human PDE2A1 (Homo sapiens (Human))
TEST DETAILS: IMAP FP PDE selectivity panel, human PDE2A1
Type: biochemical
CONDITION: Human PDE2, Lab B; read-out: Human PDE2 Ki (nM) - Lab B
Label Criterion met when Ki < 10 nM; otherwise Criterion not met.

{"columns": ["COMPOUND", "CLASS NAME"],
 "data": [
  ["CC(C)(NC(=O)c1cc(=O)[nH]c(-c2ccccc2)n1)c1ccc(Br)cc1", "Criterion not met"],
  ["Cc1nc(C(=O)N[C@]2(c3ccc(C(F)(F)F)cc3)C[C@@H]2C)cc(=O)[nH]1 (single isomer, unassigned) [Example 671]", "Criterion not met"],
  ["Cc1nc(C(=O)N[C@@H](c2ccc(OC(F)F)c(F)c2)C(C)(C)C)cc(=O)[nH]1", "Criterion met"],
  ["COc1ccc(C(C)(C)c2nc(C(=O)N[C@@H](c3ccc(SC(F)(F)F)cc3)C(C)C)cc(=O)[nH]2)cc1", "Criterion not met"],
  ["COc1ccc(Cc2nc(C(=O)N[C@@H](c3ccc(S(F)(F)(F)(F)F)cc3)C(C)C)cc(=O)[nH]2)cc1F", "Criterion met"],
  ["C[C@@H](NC(=O)c1cc(=O)[nH]c(-c2ccccc2)n1)c1ccc(SC(F)(F)F)c(F)c1", "Criterion met"],
  ["CC(C)(C)[C@@H](NC(=O)c1cc(=O)[nH]c(-c2ccccc2)n1)c1ccc(OC(F)(F)F)c(F)c1", "Criterion met"]
]}

* * *

ASSAY SYSTEM: UniProt B3VTJ2
TEST DETAILS: PDE2 fluorescence polarization (IMAP FP) inhibition assay, rhesus enzyme
Assay type: biochemical, rhesus macaque
CONDITION: Rhesus PDE2, Lab A; read-out: Rhesus PDE2 Ki (nM) - Lab A
Label met when Ki < 30 nM; otherwise not met.

{"columns": ["COMPOUND", "ASSAY SYSTEM", "CLASS NAME"],
 "data": [
  ["CC(C)(NC(=O)c1cc(=O)[nH]c(-c2ccccc2)n1)c1ccc(SC(F)(F)F)cc1 [Example 186]", "UniProt B3VTJ2", "not met"],
  ["COc1ccc2cc(C(C)NC(=O)c3cc(=O)[nH]c(-c4ncccn4)n3)ccc2c1 (centres unmarked) [Example 84]", "UniProt B3VTJ2", "not met"],
  ["O=C(NC1(c2ccc(SC(F)(F)F)cc2)CC1)c1cc(=O)[nH]c(C2CC2)n1 [Example 199]", "UniProt B3VTJ2", "met"],
  ["Cc1cc(C(F)(F)F)ccc1C(C)NC(=O)c1cc(=O)[nH]c(-c2ccccc2)n1 (centres unmarked) [Example 173]", "UniProt B3VTJ2", "not met"],
  ["CN(Cc1ccc(C(F)(F)F)cc1)C(=O)c1cc(=O)[nH]c(-c2ccccc2)n1 [Example 345]", "UniProt B3VTJ2", "not met"],
  ["C[C@@H](NC(=O)c1cc(=O)[nH]c(-c2ncccn2)n1)c1ccc(C(F)(F)F)c(F)c1 [Example 98]", "UniProt B3VTJ2", "met"],
  ["CC[C@@H](NC(=O)c1cc(=O)[nH]c(C)n1)c1ccc(SC(F)(F)F)c(F)c1 [Example 54]", "UniProt B3VTJ2", "met"],
  ["CC(NC(=O)c1cc(=O)[nH]c(-c2ccccc2)n1)c1ccc(C#N)cc1 (centres unmarked) [Example 370]", "UniProt B3VTJ2", "not met"],
  ["Cc1nc(C(=O)NC(C)c2ccc(C(C)C)cc2)cc(=O)[nH]1 (single isomer, unassigned) [Example 305]", "UniProt B3VTJ2", "met"],
  ["CC(C)(NC(=O)c1cc(=O)[nH]c(-c2ccccc2)n1)c1ccc(C(F)(F)F)cc1 [Example 280]", "UniProt B3VTJ2", "met"],
  ["C[C@@H](NC(=O)c1cc(=O)[nH]c(C2CC2)n1)c1ccc(C(F)(F)F)c2ccccc12 [Example 235]", "UniProt B3VTJ2", "not met"],
  ["C[C@@H](NC(=O)c1cc(=O)[nH]c(C2CC2)n1)c1ccc(S(F)(F)(F)(F)F)cc1 [Example 227]", "UniProt B3VTJ2", "met"],
  ["CC(C)(C)[C@@H](NC(=O)c1cc(=O)[nH]c(-c2ncccn2)n1)c1ccc(C(F)(F)F)cc1 [Example 255]", "UniProt B3VTJ2", "met"],
  ["Cc1nc(C(=O)N[C@@H](c2ccc(SC(F)(F)F)c(F)c2)C(C)C)cc(=O)[nH]1 [Example 53]", "UniProt B3VTJ2", "met"],
  ["CC(NC(=O)c1cc(=O)[nH]c(-c2ncccn2)n1)c1ccc(Br)cc1 (centres unmarked) [Example 85]", "UniProt B3VTJ2", "not met"],
  ["CCc1c(C(=O)N[C@H](C)c2ccc(C(F)(F)F)cc2)nc[nH]c1=O [Example 332]", "UniProt B3VTJ2", "not met"],
  ["O=C(N[C@@H](c1ccc(C(F)(F)F)c(F)c1)C1CC1)c1cc(=O)[nH]c(-c2ncccn2)n1 [Example 91]", "UniProt B3VTJ2", "not met"],
  ["CC[C@@H](NC(=O)c1cc(=O)[nH]c(COC)n1)c1ccc(SC(F)(F)F)cc1 [Example 121]", "UniProt B3VTJ2", "met"],
  ["O=C(N[C@@H](c1ccc(OC(F)(F)F)c(F)c1)C1CC1)c1cc(=O)[nH]c(C2CC2)n1 [Example 212]", "UniProt B3VTJ2", "met"],
  ["Cc1nc(C(=O)NC(c2ccc(C(F)(F)F)cc2)c2nnn[nH]2)cc(=O)[nH]1 (centres unmarked) [Example 336]", "UniProt B3VTJ2", "not met"],
  ["Cc1nc(C(=O)N[C@H](C)c2ccc(C(F)(F)F)c(C)c2)cc(=O)[nH]1 [Example 46]", "UniProt B3VTJ2", "not met"],
  ["CC(C)[C@@H](NC(=O)c1cc(=O)[nH]c(-c2ccccc2)n1)c1ccc(OC(F)(F)F)c(F)c1 [Example 127]", "UniProt B3VTJ2", "met"],
  ["Cc1nc(C(=O)NC(C)c2ccc(-c3ccccc3)cc2)cc(=O)[nH]1 (single isomer, unassigned) [Example 307]", "UniProt B3VTJ2", "met"],
  ["Cc1nc(C(=O)NC(C)(C)c2ccc(C(F)(F)F)c(F)c2)cc(=O)[nH]1 [Example 43]", "UniProt B3VTJ2", "met"],
  ["CC1Cc2cc(C(C)NC(=O)c3cc(=O)[nH]c(-c4ccccc4)n3)ccc2O1 (centres unmarked) [Example 379]", "UniProt B3VTJ2", "not met"],
  ["CC(C)c1ccc([C@@H](C)NC(=O)c2cc(=O)[nH]c(-c3ccccc3)n2)cc1 [Example 146]", "UniProt B3VTJ2", "met"],
  ["Cc1nc(C(=O)N[C@H](C)c2ccc(-c3cccc(F)c3)cc2)cc(=O)[nH]1 [Example 323]", "UniProt B3VTJ2", "not met"],
  ["COc1cccc(Cc2nc(C(=O)N[C@H](C)c3ccc(C(F)(F)F)cc3)cc(=O)[nH]2)c1 [Example 140]", "UniProt B3VTJ2", "met"],
  ["Cc1nc(C(=O)N[C@H](C)c2ccc(C(F)(F)F)cc2)cc(=O)[nH]1 [Example 13]", "UniProt B3VTJ2", "not met"],
  ["C[C@@H](NC(=O)c1cc(=O)[nH]c(C2CC2)n1)c1ccc(SC(F)(F)F)c(F)c1 [Example 243]", "UniProt B3VTJ2", "met"]
]}
